# System: Pons
# measurement protocol: Drug uptake in anesthetized cynomolgus monkey brain pons after 125 mins postinjection
# Format: ADME, organism-based, Macaca fascicularis
# condition details: in vivo
Consider the following compounds; for each one, report its Drug uptake.
Lab note: write the figure by itself, no unit.

May I ask what Drug uptake has been recorded for O=C(OCC[18F])C1C2CCC(CC1c1cccc(/C=C\Br)c1)N2 (stereo not given) ? 4.27

May I ask what Drug uptake has been recorded for O=C(OCCC[18F])C1C2CCC(CC1c1cccc(/C=C\Br)c1)N2 (stereo not given) ? 4.3

May I ask what Drug uptake has been recorded for O=C(OCCC[18F])C1C2CCC(CC1c1cccc(/C=C\I)c1)N2 (stereo not given) ? 3.82

May I ask what Drug uptake has been recorded for O=C(OCC[18F])C1C2CCC(CC1c1cccc(/C=C\I)c1)N2 (stereo not given) ? 2.76

May I ask what Drug uptake has been recorded for O=C(OCC[18F])C1C2CCC(CC1c1ccc(/C=C\I)cc1)N2 (stereo not given) ? 3.56

* * *

# Tested on: Caudate
# measurement protocol: Drug uptake in anesthetized cynomolgus monkey brain caudate after 3.5 mins postinjection
# Type: ADME, organism-based, Macaca fascicularis, Caudate nucleus
# condition details: in vivo
observation type: Drug uptake
Lab note: write the figure by itself, no unit.

May I ask what Drug uptake has been recorded for O=C(OCC[18F])C1C2CCC(CC1c1cccc(/C=C\I)c1)N2 (stereo not given) ? 0.79

May I ask what Drug uptake has been recorded for O=C(OCCC[18F])C1C2CCC(CC1c1cccc(/C=C\I)c1)N2 (stereo not given) ? 1.15

May I ask what Drug uptake has been recorded for O=C(OCCC[18F])C1C2CCC(CC1c1cccc(/C=C\Br)c1)N2 (stereo not given) ? 1.7

May I ask what Drug uptake has been recorded for O=C(OCC[18F])C1C2CCC(CC1c1cccc(/C=C\Br)c1)N2 (stereo not given) ? 0.63

May I ask what Drug uptake has been recorded for O=C(OCC[18F])C1C2CCC(CC1c1ccc(/C=C\I)cc1)N2 (stereo not given) ? 0.56

* * *

# Tested on: Pons
# measurement protocol: Drug uptake in anesthetized cynomolgus monkey brain pons after 0.5 mins postinjection
# Format: ADME, organism-based, Macaca fascicularis
# condition details: in vivo
observation type: Drug uptake
Lab note: write the figure by itself, no unit.

May I ask what Drug uptake has been recorded for O=C(OCC[18F])C1C2CCC(CC1c1cccc(/C=C\Br)c1)N2 (stereo not given) ? 0.01

May I ask what Drug uptake has been recorded for O=C(OCC[18F])C1C2CCC(CC1c1ccc(/C=C\I)cc1)N2 (stereo not given) ? 0

May I ask what Drug uptake has been recorded for O=C(OCCC[18F])C1C2CCC(CC1c1cccc(/C=C\Br)c1)N2 (stereo not given) ? 0.01

May I ask what Drug uptake has been recorded for O=C(OCCC[18F])C1C2CCC(CC1c1cccc(/C=C\I)c1)N2 (stereo not given) ? 0.01

May I ask what Drug uptake has been recorded for O=C(OCC[18F])C1C2CCC(CC1c1cccc(/C=C\I)c1)N2 (stereo not given) ? 0

* * *

# measurement protocol: Ratio of drug uptake in midbrain to cerebellum in anesthetized cynomolgus monkey after 135 mins postinjection
# Format: ADME, organism-based, Macaca fascicularis
# condition details: in vivo, 2.25 h
observation type: Ratio

May I ask what Ratio has been recorded for O=C(OCC[18F])C1C2CCC(CC1c1cccc(/C=C\Br)c1)N2 (stereo not given) ? 1.9

May I ask what Ratio has been recorded for O=C(OCCC[18F])C1C2CCC(CC1c1cccc(/C=C\I)c1)N2 (stereo not given) ? 1.7

May I ask what Ratio has been recorded for O=C(OCCC[18F])C1C2CCC(CC1c1cccc(/C=C\Br)c1)N2 (stereo not given) ? 1.9

May I ask what Ratio has been recorded for O=C(OCC[18F])C1C2CCC(CC1c1ccc(/C=C\I)cc1)N2 (stereo not given) ? 2.8

May I ask what Ratio has been recorded for O=C(OCC[18F])C1C2CCC(CC1c1cccc(/C=C\I)c1)N2 (stereo not given) ? 2

* * *

# measurement protocol: Protein binding in anesthetized cynomolgus monkey plasma after 1 min postinjection
# Assay type: ADME, organism-based, Macaca fascicularis
# condition details: read-out: PPB (converted)
observation type: fraction unbound at 1 min
Lab note: write the figure by itself, no unit.

May I ask what fraction unbound at 1 min has been recorded for O=C(OCC[18F])C1C2CCC(CC1c1cccc(/C=C\I)c1)N2 (stereo unspecified) ? 0.942

* * *

# Test system: Pons
# measurement protocol: Drug uptake in anesthetized cynomolgus monkey brain pons after 215 mins postinjection
# Type: ADME, organism-based, Macaca fascicularis
# condition details: in vivo
Assign class by Drug uptake: not lower than 3 means 1.0; lower than 3 means 0.0.

Hi, just wondering whether O=C(OCC[18F])C1C2CCC(CC1c1cccc(/C=C\I)c1)N2 (stereo not given) shows Drug uptake of 3 or higher. 0.0

Hi, just wondering whether O=C(OCC[18F])C1C2CCC(CC1c1cccc(/C=C\Br)c1)N2 (stereo not given) shows Drug uptake of 3 or higher. 1.0

Hi, just wondering whether O=C(OCCC[18F])C1C2CCC(CC1c1cccc(/C=C\I)c1)N2 (stereo not given) shows Drug uptake of 3 or higher. 1.0

Hi, just wondering whether O=C(OCC[18F])C1C2CCC(CC1c1ccc(/C=C\I)cc1)N2 (stereo not given) shows Drug uptake of 3 or higher. 1.0

Hi, just wondering whether O=C(OCCC[18F])C1C2CCC(CC1c1cccc(/C=C\Br)c1)N2 (stereo not given) shows Drug uptake of 3 or higher. 1.0

* * *

# System: Caudate
# measurement protocol: Drug uptake in anesthetized cynomolgus monkey brain caudate after 95 mins postinjection
# Assay type: ADME, organism-based, Macaca fascicularis, Caudate nucleus
# condition details: in vivo
observation type: Drug uptake

May I ask what Drug uptake has been recorded for O=C(OCCC[18F])C1C2CCC(CC1c1cccc(/C=C\I)c1)N2 (stereo not given) ? 3.82

May I ask what Drug uptake has been recorded for O=C(OCCC[18F])C1C2CCC(CC1c1cccc(/C=C\Br)c1)N2 (stereo not given) ? 5.03

May I ask what Drug uptake has been recorded for O=C(OCC[18F])C1C2CCC(CC1c1cccc(/C=C\I)c1)N2 (stereo not given) ? 3.39

May I ask what Drug uptake has been recorded for O=C(OCC[18F])C1C2CCC(CC1c1cccc(/C=C\Br)c1)N2 (stereo not given) ? 4.15

May I ask what Drug uptake has been recorded for O=C(OCC[18F])C1C2CCC(CC1c1ccc(/C=C\I)cc1)N2 (stereo not given) ? 3.05

* * *

# measurement protocol: Ratio of drug uptake in midbrain to cerebellum in anesthetized cynomolgus monkey after 18.5 mins postinjection
# Type: ADME, organism-based, Macaca fascicularis
# condition details: in vivo
Consider the following compounds; for each one, report its Ratio.
Lab note: write the figure by itself, no unit.

May I ask what Ratio has been recorded for O=C(OCC[18F])C1C2CCC(CC1c1cccc(/C=C\I)c1)N2 (centres undefined) ? 1.1

May I ask what Ratio has been recorded for O=C(OCCC[18F])C1C2CCC(CC1c1cccc(/C=C\I)c1)N2 (centres undefined) ? 1

May I ask what Ratio has been recorded for O=C(OCCC[18F])C1C2CCC(CC1c1cccc(/C=C\Br)c1)N2 (centres undefined) ? 0.9

May I ask what Ratio has been recorded for O=C(OCC[18F])C1C2CCC(CC1c1cccc(/C=C\Br)c1)N2 (centres undefined) ? 1.2

* * *

Consider the following molecules; for each one, report its Drug uptake.
# Tested on: Medulla
# measurement protocol: Drug uptake in anesthetized cynomolgus monkey brain medulla after 165 mins postinjection
# Assay type: ADME, organism-based, Macaca fascicularis
# condition details: in vivo, 2.75 h
Lab note: write the figure by itself, no unit.

May I ask what Drug uptake has been recorded for O=C(OCCC[18F])C1C2CCC(CC1c1cccc(/C=C\Br)c1)N2 (stereo not given) ? 4.42

May I ask what Drug uptake has been recorded for O=C(OCC[18F])C1C2CCC(CC1c1cccc(/C=C\Br)c1)N2 (stereo not given) ? 3.94

May I ask what Drug uptake has been recorded for O=C(OCC[18F])C1C2CCC(CC1c1ccc(/C=C\I)cc1)N2 (stereo not given) ? 3.58

May I ask what Drug uptake has been recorded for O=C(OCC[18F])C1C2CCC(CC1c1cccc(/C=C\I)c1)N2 (stereo not given) ? 2.88

May I ask what Drug uptake has been recorded for O=C(OCCC[18F])C1C2CCC(CC1c1cccc(/C=C\I)c1)N2 (stereo not given) ? 4.45

* * *

# measurement protocol: Drug uptake in anesthetized cynomolgus monkey brain frontal lobe after 165 mins postinjection
# Format: ADME, organism-based, Macaca fascicularis
# condition details: in vivo, 2.75 h
observation type: Drug uptake
Lab note: write the figure by itself, no unit.

May I ask what Drug uptake has been recorded for O=C(OCC[18F])C1C2CCC(CC1c1cccc(/C=C\Br)c1)N2 (centres undefined) ? 2.38

May I ask what Drug uptake has been recorded for O=C(OCCC[18F])C1C2CCC(CC1c1cccc(/C=C\Br)c1)N2 (centres undefined) ? 2.58

May I ask what Drug uptake has been recorded for O=C(OCCC[18F])C1C2CCC(CC1c1cccc(/C=C\I)c1)N2 (centres undefined) ? 2.08

May I ask what Drug uptake has been recorded for O=C(OCC[18F])C1C2CCC(CC1c1cccc(/C=C\I)c1)N2 (centres undefined) ? 1.81
